Listed next: entries and their corresponding inhibition.
Test: inhibition of NOD2-driven NF-kB reporter – cell-based, luminescence, uHTS, HEK293 (AID 1566)
Settings: HEK293 NOD2/NF-kB luciferase reporter, at 4 µM, active compounds read high
Among all 290,000 compounds or so, about 1,800 (0.62%) were called active. This excerpt belongs to a sample that is enriched for actives.
Note: unit % is implicit; provide only the numeric part.

INSERT INTO assay_data (compound, numeric_result) VALUES
  ('O=C(CN1CCN(S(=O)(=O)c2ccc(Cl)cc2)CC1)NC1CCCC1', -2.2),
  ('C=CCNC(=O)NC(=O)Cn1c(=O)c2c(ncn2CC)n(Cc2ccccc2)c1=O', 17.8),
  ('CCCCCCc1cc2cc(C(N)=O)c(=N)oc2cc1O', 1.5),
  ('O=C(COc1ccccc1)Nc1cc(C(F)(F)F)ccc1N1CCCC1', 24.5),
  ('O=C(CNC(=O)C1COc2ccccc2O1)N/N=C\c1ccccc1Cl (centres undefined)', 19.9);

Query inhibition for C=CCNC(=O)c1c(Cl)cccc1Cl
11.9

Kindly indicate its recorded inhibition. Item: O=C(CN(Cc1cccs1)C(=O)CNS(=O)(=O)c1ccccc1)NC1CCCC1
9.3

Please list inhibition recorded for the compound Cc1ccc(NC(=O)CCSc2nnc3ccccn23)cc1
18.1

Supply reported inhibition belonging to this compound: CCN(CC)c1ccc(/C=N/NC(=O)CNC(=O)C2COc3ccccc3O2)c(O)c1 (centres undefined)
69.1

Tell us which inhibition value is on record for O=C(CSc1ccc(Br)cc1)N1CCOCC1
0

Indicate its recorded inhibition; the compound in question is CCOC(=O)c1c(-c2ccccc2)csc1NC(=O)CSc1nnnn1C
12.2

Answer with the recorded inhibition of CC1(C)c2ccccc2N2CCC(=O)NC21/C=C/c1ccco1 (centres undefined) only.
3.8

// fetch inhibition given entry CCOC(=O)c1c(N)sc(C(=O)N(CC)CC)c1C
2.6

Give the reported value of inhibition for this record: O=C(N/N=C/c1cc([N+](=O)[O-])ccc1O)c1ccc(COc2ccc3c(c2)CCC3)o1
50.4

Quick one: give measured inhibition for O=C(COc1cccc(C(F)(F)F)c1)Nc1ccc(S(=O)(=O)N2CCCC2)cc1
-5.9

Dear colleague, please send me the reported inhibition for Cc1cc(N2CCCC2)ccc1NC(=O)COc1cccc(C(F)(F)F)c1 when you can.
60.3
